test system: B. subtilis 168 strain; experiment: MIC, standard microtiter broth dilution; type: cell-based, Bacillus subtilis; conditions: B. subtilis 168 strain grown in LB broth at 37 °C for 18 h
ASSAY_ENDPOINT: MIC (µg/mL)
Give a bare numeral; the unit µg/mL is implied.

[
  {
    "COMPOUND": "O=C1C(Cl)=C(NCCc2ccc(O)c(O)c2)C(=O)c2c(O)ccc(O)c21 [2f]",
    "ASSAY_ENDPOINT": "MIC",
    "READING": 8
  },
  {
    "COMPOUND": "Cc1noc2c1C(=O)c1c(O)ccc(O)c1C2=O [3b]",
    "ASSAY_ENDPOINT": "MIC",
    "READING": 0.5
  },
  {
    "COMPOUND": "O=C1C(Cl)=C(Nc2cccc(O)c2)C(=O)c2c(O)ccc(O)c21 [2g]",
    "ASSAY_ENDPOINT": "MIC",
    "READING": 1
  },
  {
    "COMPOUND": "O=C1C(N2CCNCC2)=C(Cl)C(=O)c2c1cccc2[N+](=O)[O-] [2d]",
    "ASSAY_ENDPOINT": "MIC",
    "READING": 8
  },
  {
    "COMPOUND": "O=C1C(Cl)=C(Nc2ccc(Cl)c(O)c2)C(=O)c2c(O)ccc(O)c21 [2h]",
    "ASSAY_ENDPOINT": "MIC",
    "READING": 8
  }
]

Request: State its MIC: O=C1C(Cl)=C(N2CCNCC2)C(=O)c2ccccc21 [2c]
Result: 8

Request: Tell me MIC reported for O=C1c2onc(-c3ccccc3)c2C(=O)c2c(O)ccc(O)c21 [3a]
Result: 0.5

Request: Consider the compound O=C(O)c1cc(NC2=C(Cl)C(=O)c3c(cccc3[N+](=O)[O-])C2=O)ccc1O [2n] and give its recorded MIC.
Result: 128

Request: Tell me its MIC given O=C1C(Cl)=C(NCCO)C(=O)c2c(O)ccc(O)c21 [2e] as the entry.
Result: 2

Request: Answer with the recorded MIC of CC(C)(C)OC(=O)Nc1cccc(NC2=C(Cl)C(=O)c3c(O)ccc(O)c3C2=O)c1 [2l] only.
Result: 8

Request: Return MIC (reported value) for this compound: O=C1C(N2CCNCC2)=CC(=O)c2c(O)cccc21 [2b]
Result: 8

Request: Specify MIC for O=C(O)c1cc(NC2=C(Cl)C(=O)c3c(O)ccc(O)c3C2=O)ccc1O [2m] and stop.
Result: 64

* * *

target: WalK (Bacillus subtilis, UniProt Q45614); construct: His6 (N); made in house; host or cells: E. coli BL21(DE3); assay: Inhibition of WalK autophosphorylation; format: biochemical; details: against WalK from B. subtilis, autophosphorylation; N.I. = no inhibition; listed as C00015; read-out: IC50
Sequence (Q45614 207-611): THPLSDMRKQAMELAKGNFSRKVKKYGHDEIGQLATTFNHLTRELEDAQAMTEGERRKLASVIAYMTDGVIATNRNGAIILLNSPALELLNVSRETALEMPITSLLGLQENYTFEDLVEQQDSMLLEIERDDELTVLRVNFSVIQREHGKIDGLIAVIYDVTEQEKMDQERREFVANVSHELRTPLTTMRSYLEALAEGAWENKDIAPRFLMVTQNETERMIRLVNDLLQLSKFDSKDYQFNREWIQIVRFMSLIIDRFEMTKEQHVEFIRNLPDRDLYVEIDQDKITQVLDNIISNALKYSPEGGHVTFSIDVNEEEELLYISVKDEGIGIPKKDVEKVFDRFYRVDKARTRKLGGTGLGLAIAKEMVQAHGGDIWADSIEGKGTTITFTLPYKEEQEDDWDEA
ASSAY_ENDPOINT: pIC50
# pIC50 is unitless: minus log10 of the molar concentration; print number only

Request: Please give measured pIC50 of the following entry: O=C1C(Cl)=C(Nc2ccc(Cl)c(O)c2)C(=O)c2c(O)ccc(O)c21
Result: 4.90

* * *

test system: iseA (formerly yoeB); experiment: RT-qPCR of iseA expression in B. subtilis cells; type: cell-based, B. subtilis 168; parameters: key: RT-qPCR + iseA gene expression was induced in B. subtilis 168; − no effect; conditions: summary class, iseA gene expression in B. subtilis 168
ASSAY_ENDPOINT: RT-qPCR

Field: example entries. Status: answers known.
[
  {
    "MOLECULAR_STRING": "CC(C)(C)OC(=O)Nc1cccc(NC2=C(Cl)C(=O)c3c(O)ccc(O)c3C2=O)c1",
    "ASSAY_ENDPOINT": "RT-qPCR",
    "READING": "+"
  },
  {
    "MOLECULAR_STRING": "O=C1C(N2CCNCC2)=CC(=O)c2c(O)cccc21",
    "ASSAY_ENDPOINT": "RT-qPCR",
    "READING": "−"
  },
  {
    "MOLECULAR_STRING": "Nc1cccc2c1C(=O)C(Cl)=C(Nc1ccc(O)c(C(=O)O)c1)C2=O",
    "ASSAY_ENDPOINT": "RT-qPCR",
    "READING": "−"
  },
  {
    "MOLECULAR_STRING": "Cc1noc2c1C(=O)c1c(O)ccc(O)c1C2=O",
    "ASSAY_ENDPOINT": "RT-qPCR",
    "READING": "+"
  },
  {
    "MOLECULAR_STRING": "O=C1C(Cl)=C(N2CCNCC2)C(=O)c2c(O)ccc(O)c21",
    "ASSAY_ENDPOINT": "RT-qPCR",
    "READING": "+"
  }
]

Now for the compound whose RT-qPCR we want.
Request: Name the recorded RT-qPCR of the item O=C1C(Cl)=C(Nc2ccc(Cl)c(O)c2)C(=O)c2c(O)ccc(O)c21 in your answer.
Result: +
